target: RSV postfusion F (postF), F ΔFP (Respiratory syncytial virus, UniProt P03420 26-513); test: BLI, IgG on anti-human IgG sensor, 100 nM antigen
binders and their reported Kd

binder | Kd
ADI-41593 (antibody, V domains shown, also called Ab 867; Antibody Number 867) VH: QVQLVQSGVEVKKPGESLKISCKGSGYSFTNYWIAWVRQMPGKGLEWMGIIYPGDSDTRYSPSFQGQVTISADKSISTAYVQWSSLKASDTAIYYCARGDILTNSGPDAFDIWGQGTMVTVSS VL: DIQMTQSPSSFSASTGDRVTITCRASQAISSYLAWFQQKPGKAPKLLIYAASTLQSGVPSRFSGSGSGTDFTLTISCLQSEDFATYYCQQYYSYPLTFGGGTKVEIK | 0.53 nM
ADI-41811 (antibody, V domains shown) VH: QVQLQQSGPRLVKPSHTLSLTCVISGDSVSSGSAAWSWIRQSPSRGLEWLGRTYYRSKWYYDYAVSVKGRIIIQPDTSKNQFSLQLNSVSPEDTAVYYCARDPDSGNYFHYYGMDVWGQGTTVTVSS VL: DIVMTQSPATLSLSPGERATLSCRASQSVDVYFAWYQQKPGQAPRLLIYDASKRASGVPARFSGSASGTDFTLTISSLEPEDFAVYYCQQRAKWPPYTFGQGTKLEIK | 0.744 nM
ADI-41602 (antibody, V domains shown, also called Ab 876; Antibody Number 876) VH: EVQLQESGPGLVKPSETLSLTCTVSGGSLSGYYWSWIRQPPGKGLEWIGYIYHSGSTNYNPSLESRVTISVDTSKNQFSLKVNAVTAADTAVYYCAKVERLLRFDPWGQGTLVTVSS VL: QSVLIQPASVSGSPGQSITISCIGSSSDVGGYNYVSWYQHYPGKAPKLMIYDVSNRPSGVSNRFSGSKSGNTASLTISGLQAEDEADYYCSSYTSSTSYVFGTGTKVTVL | 0.455 nM
ADI-41805 (antibody, V domains shown, also called Ab 914; Antibody Number 914) VH: QVQLVQSGAEVKKPGESLKISCKASGYSFTSYWIAWVRQMPGKGLEWMGIIFPGDSDTRYSPSFQGQVTISADKSISTAYLQWSSLEASDTAMYYCAKSTTYYYYGLDVWGQGTTVTVSS VL: QPVLTQPASVSGSPGQSITISCTGTSSDVGGYDYVSWYQQYPGKAPKLMIYEVSNRPLGVSNRFSGSRSGYTASLTISGLQAEDETNYYCSSYTSSRTWVFGGGTKLTVL | 2 nM
ADI-41606 (antibody, V domains shown, also called Ab 880; Antibody Number 880) VH: EVQLLESGPGLVKPSETLSLTCTVSGGSVSSGGYYYTWIRQPPGKGLEWIGYAFYSGDTNYNPSLKSRVTISVDTSKNQFSLKLTSVTAADTAVYYCASTYTFGASGFDFWGQGTLVTVSS VL: DIVMTQSPSFMSASVGDRVTITCRASQGISNWLLWYQQKPGKAPKLLIYAASSLQSGVPSRFSGSRSGTDFTLTISSLQPEDFAIYYCQQANSFPLTFGQGTRLEIK | 1.03 nM
